compounds and their reported pIC50
# Tested on: Plasmodium falciparum
# Assay Comment: Antimalarial activity against Plasmodium falciparum D6 trophozoites assessed as reduction in [3H]-hypoxanthine incorporation preincubated for 96 hrs followed by [3H]-hypoxanthine addition at 48 hrs post start of experiment
# Assay type: functional
Answer as the number alone; pIC50 is minus log10 of concentration in mol/L.

# lookup: pIC50 of CCOC(=O)[C@H](Cc1ccccc1)NP(=O)(CCOCC(COCCP(=O)(N[C@@H](Cc1ccccc1)C(=O)OCC)N[C@@H](Cc1ccccc1)C(=O)OCC)Cn1cnc2c(=O)[nH]c(N)nc21)N[C@@H](Cc1ccccc1)C(=O)OCC
5.29

Moving on to another compound below.
# lookup: pIC50 of CCOC(=O)[C@H](Cc1ccccc1)NP(=O)(CCOCC(COCCP(=O)(N[C@@H](Cc1ccccc1)C(=O)OCC)N[C@@H](Cc1ccccc1)C(=O)OCC)n1cnc2c(=O)[nH]cnc21)N[C@@H](Cc1ccccc1)C(=O)OCC
5.82
